Every entry's value here was drawn from the supplement of paper PMC10065799.

Biological target: Grb2 SH2 (UniProt P62993)
Sequence (P62993 whole entry, looked up): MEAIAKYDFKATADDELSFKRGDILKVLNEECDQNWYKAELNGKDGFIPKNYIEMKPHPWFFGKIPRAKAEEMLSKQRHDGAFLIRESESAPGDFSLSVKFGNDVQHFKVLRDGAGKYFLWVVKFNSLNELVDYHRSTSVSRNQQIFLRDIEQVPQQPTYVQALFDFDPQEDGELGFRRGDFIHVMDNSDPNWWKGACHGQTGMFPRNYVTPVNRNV
Test: SH2 binding enrichment of the phosphorylated peptide, bacterial display (enrichment ratio); higher = better substrate or ligand; peptides without Tyr show the background
Outcome: 1 for SH2 binding enrichment of at least 1; 0 for anything lower.

{"columns": ["Primary sequence", "Tested system", "Class"],
 "data": [
  ["AVNDFYAAKKT [CCDC178_Y422]", "Grb2 SH2 (UniProt P62993)", 1],
  ["LLVVLCKYRCY [PSEN1_Y154_Y154C]", "Grb2 SH2 (UniProt P62993)", 1],
  ["PLDGEYSTLQI [TP53_Y327_F328S]", "Grb2 SH2 (UniProt P62993)", 0],
  ["TIQDAYMHITS [ADCY10_Y318_A313T]", "Grb2 SH2 (UniProt P62993)", 0],
  ["LAETSYVKVLE [MAGEA1_Y276]", "Grb2 SH2 (UniProt P62993)", 0],
  ["LRVGFYESDVM [A2M_Y708]", "Grb2 SH2 (UniProt P62993)", 0],
  ["REEKNYKLKET [BCLAF1_Y459]", "Grb2 SH2 (UniProt P62993)", 1]
]}

* * *

Test system: c-Src
Assay: phosphorylation enrichment, bacterial display (enrichment ratio); higher = better substrate or ligand; peptides without Tyr show the background
Just so you know, the groups by phosphorylation enrichment go like this: lower level (below 0.6), middle level (0.6 to below 2), upper level (2 or more)

{"columns": ["Primary sequence", "Class"],
 "data": [
  ["DYLEKYYKFGC [NNMT_Y24_S29C]", "middle level"],
  ["DFFDLYGGEKL [PTPN11_Y66_F71L_YF]", "upper level"],
  ["IRSGIYYKPES [L2HGDH_Y102_H98R]", "middle level"],
  ["VHFARYLAMNK [HARS1_Y138_P134H]", "lower level"],
  ["KSDVVYTDWKK [ORM1_Y175]", "middle level"],
  ["LTDTVYSSSSA [OR4C12_Y71_I67T]", "upper level"],
  ["CYCSWYRGWAP [TIMP3_Y195_G190C]", "upper level"],
  ["PHMQTYEVDHN [SDHB_Y61_L65H]", "middle level"],
  ["YDKEYYSVHNK [MET_Y1235]", "middle level"],
  ["SAEEDYMADAK [KCNT1_Y876]", "lower level"],
  ["DWWQEYVLNES [TGM1_Y267_R264W]", "upper level"],
  ["SGDDGYAKDAK [TENM4_Y1530]", "lower level"],
  ["GRSTCYWPRPR [GAGE12J_Y10_Y9C]", "middle level"],
  ["KEDSAYGSQSV [NFKB2_Y868]", "lower level"]
]}

* * *

Target: c-Src SH2
Experiment: SH2 binding enrichment of the phosphorylated peptide, bacterial display (enrichment ratio); higher = better substrate or ligand; peptides without Tyr show the background

{"columns": ["Primary sequence", "SH2 binding enrichment"],
 "data": [
  ["APSHAYHRGVL [ANO1_Y981_G983R]", 0.679],
  ["PSDSGYSFETI [MAP1B_Y1921_YF]", 2.13],
  ["FTNRSYDLDYD [MYC_Y12_N11S]", 2.51],
  ["QEGPEYWDLET [HLA-A_Y83_Q86L]", 0.507],
  ["PTTKSYFPHFD [HBA1_Y43_T42S]", 0.593],
  ["EALDFYGEVKT [PTEN_Y155_R159K]", 0.471],
  ["HLSPEYKQNEI [GJB1_Y243_R238H]", 0.611],
  ["LTGIAYGLPHW [SLC22A14_Y291_S292G]", 0.768],
  ["ERQIRYLNHQL [CEP152_Y268]", 0.512],
  ["PLQKTYNYNVL [SLC4A1_Y553]", 1.12],
  ["PTTKTYFPHFH [HBA1_Y43_D48H]", 0.761],
  ["QAYSWYQHQRA [NDST1_Y714_R709Q]", 1.08],
  ["FLRTGYSVPFG [TGM1_Y370_YF]", 5.53],
  ["PRAEWYRDDVL [MYOM2_Y317]", 0.585],
  ["TSHKGYVAFLE [CARD9_Y76_G72S]", 2.64],
  ["PVKDGYQMAQP [CSF1R_Y873_L868P]", 0.527],
  ["TRSFDYMEGED [FGF7_Y58_G62E_YF]", 0.618],
  ["YRKNIYNVKST [SYNE2_Y575]", 0.422],
  ["DRLASYLDKVP [KRT14_Y129_R134P]", 0.521],
  ["WQQQSYLDFGI [CTNNB1_Y30_S33F]", 0.592],
  ["YLRTGYSIPYG [TGM1_Y370_V372I]", 9.77],
  ["DAANNYARGHY [TUBA3E_Y103_S101N]", 0.509],
  ["YDKEYYSVHNK [MET_Y1235]", 0.478],
  ["RRSKMYLKTRS [LPL_Y329_S325R]", 0.319],
  ["HNELYYEAAEH [VANGL1_Y345_E347A]", 0.777],
  ["CEHFSYFGMKA [SLC15A2_Y60_R57H_YF]", 0.604],
  ["GSLEDYVRETN [GIMAP6_Y176]", 0.541],
  ["YADPYYDYEIE [ZC3H18_Y372]", 2.04],
  ["EMTRNYIIFIE [BCO2_Y294_G289E]", 0.625]
]}

* * *

Molecular target: Grb2 SH2 (UniProt P62993)
Test: SH2 binding enrichment of the phosphorylated peptide, bacterial display (enrichment ratio); higher = better substrate or ligand; peptides without Tyr show the background
Below is a list of entries, each paired with its recorded SH2 binding enrichment value.

{"columns": ["Primary sequence", "SH2 binding enrichment"],
 "data": [
  ["SVETPYGSVTF [NDRG2_Y47]", 0.809],
  ["EALDFYGEVKT [PTEN_Y155_R159K]", 0.813],
  ["PLQKTYNYNVL [SLC4A1_Y553]", 0.708],
  ["FHKALYTVRTY [PDE6C_Y266_S270T]", 0.768],
  ["VFLGAYDRFLP [SLC22A5_Y486_YF]", 0.908],
  ["SGPRRYTVAAL [TTR_Y125_I127V]", 0.794],
  ["EVDGLYREAPI [MYL12B_Y143_E141G]", 0.753],
  ["QAYSWYQHQRA [NDST1_Y714_R709Q]", 1.23],
  ["IRYPPYTDWNQ [ALDH3B2_Y365_H361R]", 0.76],
  ["GQRDLYSGLNQ [CD3E_Y199]", 0.852],
  ["PTTKTYFPHFH [HBA1_Y43_D48H]", 0.971],
  ["RSSKTYLKTRS [LPL_Y329_M328T]", 1.23],
  ["FGLDRYQCDCT [PTGS1_Y54]", 1.01],
  ["KYWREYILSLE [GPC3_Y299]", 1.48],
  ["DRLASDLDKVR [KRT10_Y160_Y160D]", 0.842],
  ["FAKTQYPDVFA [CRX_Y63_YF]", 0.803],
  ["DISEPYEVYRI [IRF8_Y107_K108E]", 0.76],
  ["YKGKKYKPLDL [RPL35_Y78]", 0.821],
  ["LVMFIYAIFGM [SCN1A_Y1684]", 2.09],
  ["SVVVPYEPPEG [TP53_Y220_V225G]", 1.03],
  ["RRSKMYLKTRS [LPL_Y329_S325R]", 0.981],
  ["SVICTYSPALN [TP53_Y126_T123I]", 0.838],
  ["AKKVFYMIETR [SHH_Y253_V254M]", 1.46],
  ["TFWKKYCTFWK [CCDC70_Y125_R126C]", 1.1],
  ["LTGIAYGLPHW [SLC22A14_Y291_S292G]", 0.89],
  ["SGEKPYKCSEC [ZNF543_Y283]", 1.02],
  ["RELGEYALAEY [ALDH1A3_Y492]", 0.707],
  ["TVLEPYADPYY [ZC3H18_Y367]", 0.773],
  ["IRSGIYYKPES [L2HGDH_Y102_H98R]", 0.712]
]}
